Numbers sourced from PubChem BioAssay (NCI).

Test system: CAKI-1 renal
Test Protocol: NCI-60 one-dose screen, 48 h
Test Conditions: 10 µM unless noted
Compounds without any hit were thinned out: in the full panel of roughly 83,000, 20% have a hit. Activity calls are given as the source filed them. How the source made its calls: active means growth percent below 10; inactive means the rest.
Please state which outcome applies, choosing from active, inactive

Which outcome did this test record for the compound COc1ccc(-c2c(N)noc2-c2cc(OC)c3c(c2)OCCO3)cc1 ?
inactive

Let us now turn to O=C1/C(=C/c2ccc([N+](=O)[O-])s2)Oc2ccc(Br)cc21
active

Let us now turn to N#Cc1c(N2CCOCC2)nc2sc3cc(Cl)ccc3n2c1=N
inactive

Let us now turn to COc1ccc2c(c1)nc(N)c1c3ccccc3cn21
inactive

Let us now turn to Cc1cc2c(cc1C)Nc1sc(NC(=O)CN3CCN(C)CC3)nc1C(=O)N2
inactive

Let us now turn to Cc1nn(-c2ccccc2)c2ncc3c(c12)C(=O)N(Cc1ccccc1)C3=O
active

Let us now turn to COC(=O)[C@]1(CCSC)N[C@H](c2cn(-c3ccccc3)nc2C)[C@@H]2C(=O)N(c3ccccc3)C(=O)[C@@H]21
inactive

Let us now turn to CC[C@@H]1OC(=O)[C@H](C)[C@@H](O[C@H]2C[C@@](C)(OC)[C@@H](O)[C@H](C)O2)[C@H](C)[C@@H](O[C@@H]2O[C@H](C)C[C@H](N(C)C)[C@H]2O)[C@](C)(O)C[C@@H](C)[C@@H]2N[C@@H](COCCOC)O[C@H]([C@H]2C)[C@]1(C)O
inactive

----------
System: OVCAR-3 ovarian
Test Protocol: NCI-60 one-dose screen, 48 h
Test Conditions: 10 µM unless noted
Protocol: Growth inhibition of the OVCAR-3 human tumor cell line is measured as a screen for anti-cancer activity. Cells are grown in 96 well plates and exposed to the test compound for 48 hours. Compounds are tested at a single concentration, which is 10^-5 M for most compounds. The reported endpoint is percent growth (GI% or GIPRCNT), where numbers from 0 - 100% represent growth inhibition, and numbers from -100% - 0 represent cell death. For example, a value of 40 represents 60% growth inhibition. […]
Compounds without any hit were thinned out: in the full panel of roughly 83,000, 20% have a hit. Activity calls are given as the source filed them. Rule for the calls: active = growth percent below 10; inactive = the rest.
Please state which outcome applies, choosing from active, inactive

Which outcome did this test record for the compound CCOC(=O)/C(=C/c1ccccc1)C(=O)c1ccccc1 ?
inactive

Let us now turn to Cc1cc(C(C)(C)C)cc(C)c1CC1=NCCN1
inactive

Let us now turn to C/C(=N\N1CC(=O)NC1=O)c1ccc([N+](=O)[O-])o1
inactive

Let us now turn to CCC(C)CC(CC)NCCN1CCN(C(CC)CC(C)CC)C1=S (stereo unspecified)
inactive

Let us now turn to Cc1nn(-c2ccccc2)c2ncc3c(c12)C(=O)N(Cc1ccccc1)C3=O
inactive

Let us now turn to CCCCCCCC/C=C\CCCCCCCCOc1ccccc1CC(=O)NCC[N+]1(C)CCCC1
inactive

Let us now turn to CC1=C(C(=O)Nc2ccccc2)C(c2ccc3c(c2)OCCO3)NC(=O)N1 (stereo unspecified)
inactive

Let us now turn to CC(=O)NCCSC(=O)C(=O)SCCNC(C)=O
inactive

Let us now turn to COc1cc(C2C=C(c3ccc(C)cc3)Nc3nc(SC)[nH]c(=O)c32)ccc1Oc1ccnc2cc(Cl)ccc12 (stereo unspecified)
inactive

Let us now turn to CC(=O)Oc1ccc(C23c4ccccc4C2(OC(C)=O)c2cc(OC(C)=O)ccc23)cc1 (stereo unspecified)
inactive

Let us now turn to O=C(NCCCO)c1cc(Cl)ccc1O
active

Let us now turn to ClC1=C(Cl)C(=C2C(Cl)=C(Cl)C(Cl)=C2Cl)C(Cl)=C1Cl
inactive

Let us now turn to CCOc1cc(-c2ccc[nH]2)[nH]c1/C=C1\N=C(C)C(C(=O)OC)=C1C
active

Let us now turn to CCOC(=O)C1=C(COCCN)NC(C)=C(C(=O)OC)C1c1ccccc1Cl (stereo unspecified)
inactive

Let us now turn to C/C(=N/N=C(N)N)c1ccc(Cl)cc1
inactive

Let us now turn to COc1ncc(-c2ccc3nccc(C#CCN4CCN(S(C)(=O)=O)CC4)c3c2)cc1NS(=O)(=O)c1ccc(F)cc1F
active

Let us now turn to COc1ccc2c(c1)C(=O)c1c-2c(=O)n(CCCCCCC(=O)NO)c2ccccc12
active

Let us now turn to COc1ccc(Nc2ccnc(NCCCNc3ccnc4cc(Cl)ccc34)n2)cc1
active

Let us now turn to CCC(C)CC(C)C(=O)c1c(O)ccn(O)c1=O (stereo unspecified)
inactive

Let us now turn to S=C(Nc1ccc(C2=NCCN2)cc1)Nc1ccc(C2=NCCN2)cc1
inactive

Let us now turn to CCN1C[C@@H](C)n2c(c(O)c3c(=O)n(Cc4ccc(F)c(Cl)c4)nc(C(=O)NC)c32)C1=O
inactive

Let us now turn to CCCCSc1cc(C)nc(N)n1
inactive

Let us now turn to C=CC1=C(C(=O)O)N2C(=O)[C@@H](NC(=O)/C(=N\O)c3csc(N)n3)[C@H]2SC1 (stereo in doubt)
inactive

Let us now turn to C=C(C)[C@@H]1C[C@H](O)Cc2cc(Cl)cc(Cl)c2N1
inactive

Let us now turn to O=C(Nc1ccc(Oc2ccc(NC(=O)Nc3ccc([N+](=O)[O-])cc3)cc2)cc1)Nc1ccc([N+](=O)[O-])cc1
active

Let us now turn to Cc1cc(C(C)(C)c2cc(C)c(O)c(CN(C)C)c2)cc(CN(C)C)c1O
inactive

Let us now turn to Cc1cc2c(cc1[N+](=O)[O-])NC(CNC(C)C)CC2 (stereo unspecified)
inactive

Let us now turn to COc1cc(/C=C/C(=O)c2ccc(F)cc2)ccc1OCCCCCOc1cc2c(cc1OC)C(=O)N1CCCC1C=N2 (stereo unspecified)
active

Let us now turn to CCN(CC)CCCCNc1c2ccccc2[n+](C)c2c1[nH]c1ccccc12
active

Let us now turn to COc1cc(/C=C2\CCC/C(=C\c3ccc(OCC4CO4)c(OC)c3)C2=O)ccc1OCC1CO1 (stereo unspecified)
active

Let us now turn to COc1cccc(/C=C2\COc3ccc(O)c(O)c3C2=O)c1OC
active

Let us now turn to COc1cc(-c2cc(C(=O)Nc3nc4ccccc4s3)nc3cc(-c4ccccc4)nn23)cc(OC)c1OC
inactive

Let us now turn to Nc1nc(Cl)c2[nH]cnc2n1
inactive

Let us now turn to C[C@]12C[C@H](O)[C@H]3[C@@H](CCC4=CC(=O)CC[C@@]43C)[C@@H]1CC[C@@H]2C(=O)CO
inactive

Let us now turn to O=C(c1ccccc1)c1ccco1
inactive

Let us now turn to CCN(CC)CCNc1ccc(Cl)cc1Cl
inactive

Let us now turn to NC(=O)c1ccccc1NC(=O)c1ccccc1Cl
inactive

Let us now turn to Cc1nn(-c2ccc(Cl)cc2)c2nc3c(nc12)C(=O)C(=O)c1ccccc1-3
active

Let us now turn to COc1ccc2nc3cc(Cl)ccc3c(N3CCN(c4ccnc(Nc5ccc(F)cc5)n4)CC3)c2c1
inactive

Let us now turn to COc1cccc2c1C(=O)c1c(O)c3c(c(O)c1C2=O)C[C@@](O)(/C(C)=N/NC(=O)c1cccc([N+](=O)[O-])c1)C[C@@H]3OC1CC(N)C(O)C(C)O1 (stereo partly specified)
active

Let us now turn to O=C(/C=C/c1ccccc1)CC(c1ccccc1)N1CCOCC1 (stereo unspecified)
inactive

----------
System: NCI-H23 lung
Test Protocol: NCI-60 one-dose screen, 48 h (100 = growth as untreated, 0 = no growth, -100 = all killed)
Test Conditions: 10 µM unless noted
This is part of a sample that, as a whole, favours compounds with a hit. Of some 83,000 tested, about 20% had one in any assay.
Provide the recorded growth for the entries that follow.
Give just the numeric value; % need not be written.

Give its growth value. Item: O=C(Nc1ccc(Nc2ccncc2)cc1)c1ccc(Nc2ccnc3ccc([N+](=O)[O-])cc23)cc1[N+](=O)[O-]
83

Let us now turn to Cc1cc(N2CCOCC2)nc(N2CCOCC2)n1
94.6

Let us now turn to CN1C(=O)C(=Cc2cn(Cc3ccccc3)c3ccc(Br)cc23)C(=O)N(C)C1=O
105

Let us now turn to COc1cc(OC)c2sc(-c3ccc(-n4cncc4-c4ccc(N)cc4)cc3)nc2c1
101

Let us now turn to CCCCCCCCCCCCCCCCCC1=NC(C)(C)CN1CCO
38.9

----------
Tested on: HT29 colon
Test Protocol: NCI-60 one-dose screen, 48 h (100 = growth as untreated, 0 = no growth, -100 = all killed)
Test Conditions: 10 µM unless noted
About 83,000 compounds went through this panel and 20% of them were active in at least one assay; those are over-represented in the sample as a whole.
Provide the recorded growth for the entries that follow.
Give just the numeric value; % need not be written.

Given the entry COc1ccc(-c2csc(NC(=O)c3cc(O)c(O)c(O)c3)n2)cc1 , what growth was observed with HT29 colon?
92.3

Let us now turn to O=C(/C=C/c1ccccc1Cl)c1ccc(O)cc1
14.5

Let us now turn to CC(=O)n1c2ccccc2c2ccccc21
105

Let us now turn to COc1cc(C2=NN(C(C)=O)C(c3ccc(OC(C)=O)cc3OC(C)=O)O2)c(OC(C)=O)c2ccccc12 (stereo unspecified)
29.9

Let us now turn to CCN(CC)CCCCNc1c2ccccc2[n+](C)c2c1[nH]c1ccccc12
0.443

Let us now turn to Cc1cc2cn3c4cccnc4[nH]c(=O)c3c2cc1C
-76.3
